system: HepG2 (liver cancer); assay: Antiproliferative activity, CCK-8 cell viability; type: cell-based; details: Homo sapiens, compound concentration of 3.3 μM, 72 h, read-out: Inhibition of Cancerous Cells, HepG2
I'd be grateful if you could share measured inhibition at 3.3 µM for these entries.

Known inhibition at 3.3 µM results, listed for orientation:
> print(dat)
                           structure.string          test.readout     result
1  CC1=C(CC(=O)O)c2cc(F)ccc2/C1=C\c1ccc(Cc2ccc(F)cc2)cc1  inhibition at 3.3 µM      ≥ 50%
2  CC1=C(CC(=O)N(C)O)c2cc(F)ccc2/C1=C\c1cccc(Oc2ccccc2)c1  inhibition at 3.3 µM      ≥ 50%
3  CC1=C(CC(=O)O)c2cc(F)ccc2/C1=C\c1cccc(COc2ccc(F)cc2F)c1  inhibition at 3.3 µM  30 to 50%

Now consider a different compound.
// query I have this compound here, CC1=C(CC(=O)O)c2cc(F)ccc2/C1=C\c1ccc(CN(C)c2ccccc2)cc1 , and I need its recorded inhibition at 3.3 µM.
// result < 30%

----------
system: SW480 (colon cancer); experiment: Antiproliferative activity, CCK-8 cell viability; assay type: cell-based; conditions: Homo sapiens, compound concentration of 10 μM, 72 h, read-out: Inhibition of Cancerous Cells, SW480
test.readout: inhibition at 10 µM

The following compounds each have a reported value; give each one's inhibition at 10 µM.
1. CC1=C(CC(=O)O)c2cc(F)ccc2/C1=C\c1ccc(Oc2ccc(F)cc2)cc1C
2. COc1ccc(Oc2cccc(/C=C3/C(C)=C(CC(=O)O)c4cc(F)ccc43)c2)cc1
3. CC1=C(CC(=O)O)c2c(F)cc(F)cc2/C1=C\c1ccc(Oc2ccc(F)cc2)cc1
4. O=C(O)CC1=C(Cc2ccccc2)/C(=C/c2ccc(Oc3ccc(F)cc3)cc2)c2ccc(F)cc21

// result
1: ≥ 50%; 2: 30 to 50%; 3: 30 to 50%; 4: ≥ 50%

----------
test system: HepG2 (liver cancer); test: Antiproliferative activity, CCK-8 cell viability; type: cell-based; conditions: Homo sapiens, compound concentration of 3.3 μM, 72 h, read-out: Inhibition of Cancerous Cells, HepG2
I'd be grateful if you could share measured inhibition at 3.3 µM for these entries.

The following compounds each have a reported value; give each one's inhibition at 3.3 µM.
1. CC1=C(CC(=O)O)c2cc(F)ccc2/C1=C\c1cccc(COc2ccc(C(F)(F)F)cc2)c1 [Compound A21]
2. CC1=C(CC(=O)O)c2cc(F)ccc2/C1=C\c1cccc(CCc2ccccc2)c1 [Compound A17]

// result
1. 30 to 50%
2. ≥ 50%

The following compounds each have a reported value; give each one's inhibition at 3.3 µM.
1. CC1=C(CC(=O)O)c2cc(F)cc(F)c2/C1=C\c1ccc(Oc2ccc(F)cc2)cc1 [Compound D15]
2. CC1=C(CC(=O)O)c2cc(F)ccc2/C1=C\c1cccc(COc2ccc(C(C)(C)C)cc2)c1 [Compound A22]
3. O=C(O)CC1=C/C(=C/c2ccc(Oc3ccc(F)cc3)cc2)c2ccccc21 [Compound D32]
4. CC1=C(CC(=O)O)c2c(F)cc(F)cc2/C1=C\c1cccc(Oc2ccccc2)c1 [Compound D21]
5. CC1=C(CC(=O)O)c2cc(F)ccc2/C1=C\c1cccc(CN(C)c2ccccc2)c1 [Compound A16]
6. COc1cccc2c1C(CC(=O)O)=C(C)/C2=C/c1ccc(COc2ccccc2)cc1 [Compound A11]
7. CC1=C(CC(=O)O)c2cc(F)ccc2/C1=C\c1ccc(Oc2ccc(F)c(F)c2)cc1 [Compound D5]
8. CC1=C(CC(=O)O)c2cc(F)ccc2/C1=C\c1cccc(OCc2ccccc2)c1 [Compound A4]

// result
1. ≥ 50%
2. 30 to 50%
3. ≥ 50%
4. 30 to 50%
5. < 30%
6. 30 to 50%
7. ≥ 50%
8. < 30%

----------
tested on: SW480 (colon cancer); test: Antiproliferative activity, CCK-8 cell viability; format: cell-based; conditions: Homo sapiens, compound concentration of 10 μM, 72 h, read-out: Inhibition of Cancerous Cells, SW480
test.readout: inhibition at 10 µM

The following molecules each have a reported value; give each one's inhibition at 10 µM.
1. CC1=C(CC(=O)O)c2cc(F)ccc2/C1=C\c1cccc(COc2ccc(F)cc2F)c1 [Compound A19]
2. CC1=C(CC(=O)N(C)O)c2cc(F)ccc2/C1=C\c1cccc(Oc2ccccc2)c1 [Compound B5]

// result
1. ≥ 50%
2. ≥ 50%

----------
tested on: HeLa (cervical cancer); assay: Antiproliferative activity, CCK-8 cell viability; type: cell-based; details: Homo sapiens, compound concentration of 3.3 μM, 72 h, read-out: Inhibition of Cancerous Cells, HELA
I'd be grateful if you could share measured inhibition at 3.3 µM for these entries.

Known inhibition at 3.3 µM results, listed for orientation:
> print(dat)
                                   compound         target.of.assay     result
1  COc1cccc2c1C(CC(=O)O)=C(C)/C2=C/c1ccc(COc2ccccc2)cc1  HeLa (cervical cancer)      < 30%
2  O=C(O)CC1=C/C(=C/c2ccc(Oc3ccc(F)cc3)cc2)c2ccc(F)cc21  HeLa (cervical cancer)  30 to 50%
3  CC1=C(CC(=O)O)c2cc(F)ccc2/C1=C\c1cccc(COc2ccc(F)cc2F)c1  HeLa (cervical cancer)  30 to 50%
4  CC1=C(CC(=O)N(C)O)c2cc(F)ccc2/C1=C\c1ccc(Oc2ccc(F)cc2)cc1  HeLa (cervical cancer)  30 to 50%
5  CC1=C(CC(=O)O)c2cc(F)cc(F)c2/C1=C\c1cccc(Oc2ccccc2)c1  HeLa (cervical cancer)      < 30%

The following compounds each have a reported value; give each one's inhibition at 3.3 µM.
1. COc1ccc(Oc2cccc(/C=C3/C(C)=C(CC(=O)O)c4cc(F)ccc43)c2)cc1
2. CC1=C(CC(=O)O)c2cc(F)ccc2/C1=C\c1cccc(COc2ccc(C(F)(F)F)cc2)c1
3. CC1=C(CC(=O)O)c2cc(F)ccc2/C1=C\c1ccc(Oc2ccc(F)cc2)c(C)c1
4. CC1=C(CC(=O)O)c2c(F)cc(F)cc2/C1=C\c1ccc(Oc2ccc(F)cc2)cc1

// result
1: 30 to 50%; 2: 30 to 50%; 3: < 30%; 4: < 30%

The following compounds each have a reported value; give each one's inhibition at 3.3 µM.
1. COc1ccc2c(c1)/C(=C\c1ccc(CN(C)c3ccccc3)cc1)C(C)=C2CC(=O)O
2. O=C(O)CC1=C/C(=C/c2ccc(Oc3ccc(F)cc3)cc2)c2ccccc21

// result
1. < 30%
2. 30 to 50%

The following compounds each have a reported value; give each one's inhibition at 3.3 µM.
1. CC1=C(CC(=O)O)c2cc(F)ccc2/C1=C\c1cccc(COc2ccccc2)c1
2. CC1=C(CC(=O)N(C)O)c2cc(F)ccc2/C1=C\c1ccc(Oc2ccccc2)cc1
3. CC1=C(CC(=O)O)c2cc(F)ccc2/C1=C\c1cccc(OCc2ccccc2)c1
4. CC1=C(CC(=O)O)c2cc(F)ccc2/C1=C\c1cccc(Oc2cccc(C(F)(F)F)c2)c1
5. CC1=C(CC(=O)O)c2cc(F)ccc2/C1=C/c1ccc(Oc2ccc(F)c(F)c2)cc1 [Compound E1]
6. CC1=C(CC(=O)O)c2cc(F)ccc2/C1=C\c1ccc(F)c(Oc2ccccc2)c1
7. CC1=C(CC(=O)O)c2cc(F)ccc2/C1=C\c1ccc(CCc2ccccc2)cc1
8. CC1=C(CC(=O)O)c2cc(F)ccc2/C1=C\c1cccc(COc2ccc(F)cc2)c1

// result
["< 30%", "30 to 50%", "30 to 50%", "< 30%", "30 to 50%", "< 30%", "< 30%", "≥ 50%"]

The following compounds each have a reported value; give each one's inhibition at 3.3 µM.
1. COc1ccc2c(c1)/C(=C\c1ccc(COc3ccccc3)cc1)C(C)=C2CC(=O)O
2. CC1=C(CC(=O)O)c2cc(F)ccc2/C1=C\c1ccc(COc2ccc(F)cc2F)cc1
3. CC1=C(CC(=O)O)c2cc(F)ccc2/C1=C\c1ccc(Cc2ccc(F)cc2)cc1
4. CC1=C(CC(=O)O)c2cc(F)ccc2/C1=C\c1cccc(Oc2ccc(C(F)(F)F)cc2)c1

// result
1. 30 to 50%
2. 30 to 50%
3. < 30%
4. 30 to 50%

----------
I'd be grateful if you could share measured inhibition at 10 µM for these entries.
test system: SW480 (colon cancer); assay: Antiproliferative activity, CCK-8 cell viability; format: cell-based; settings: Homo sapiens, compound concentration of 10 μM, 72 h, read-out: Inhibition of Cancerous Cells, SW480

Known inhibition at 10 µM results, listed for orientation:
> print(dat)
                                   compound     result
1  CC1=C(CC(=O)O)c2cc(F)ccc2/C1=C/c1ccc(Oc2ccc(F)c(F)c2)cc1 [Compound E1]      ≥ 50%
2  CC1=C(CC(=O)O)c2cc(F)ccc2/C1=C\c1ccc(F)c(Oc2ccccc2)c1  30 to 50%
3  COc1ccc2c(c1)/C(=C\c1ccc(COc3ccccc3)cc1)C(C)=C2CC(=O)O      ≥ 50%

The following compounds each have a reported value; give each one's inhibition at 10 µM.
1. CC1=C(CC(=O)O)c2cc(F)cc(F)c2/C1=C\c1ccc(Oc2ccc(F)cc2)cc1
2. O=C(O)CC1=C/C(=C/c2ccc(Oc3ccc(F)cc3)cc2)c2ccccc21
3. CC1=C(CC(=O)O)c2cc(F)ccc2/C1=C\c1ccccc1Oc1ccccc1
4. CC1=C(CC(=O)O)c2cc(F)ccc2/C1=C\c1ccc(COc2ccc(F)cc2F)cc1
5. CC1=C(CC(=O)O)c2cc(F)ccc2/C1=C\c1cccc(COc2ccc(F)c(F)c2)c1

// result
≥ 50%
< 30%
≥ 50%
≥ 50%
30 to 50%
